// reported protein stability index for each item listed
B1: DVL3 (parent)
chain: FPELGYSYGGGSASSQHSEGSRSS

Variants of: B1
Assay: protein stability index of a GFP-peptide fusion (GPS, HEK-293T) (PSI 1-6); higher = more stable;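 also: lentivirally expressed fusions sorted by FACS into six bins by GFP to DsRed ratio, PSI derived from sequencing read proportions per bin multiplied by bin number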
Conditions: c terminus: a fixed tail appended
Reply with the value as a number alone.

mutant.label	protein stability index
L4H	3.33

Entry G9E , protein stability index reported as 4.39

Entry L4V , protein stability index reported as 3.36

Entry G20L , protein stability index reported as 2.5

Entry E19D , protein stability index reported as 3.64

Entry Q16K , protein stability index reported as 2.95

Entry G20K , protein stability index reported as 3.06

Entry S14D , protein stability index reported as 3.61

Entry S23Y , protein stability index reported as 2.49

Entry A13W , protein stability index reported as 1.91

Entry L4R , protein stability index reported as 2.84

Entry G9D , protein stability index reported as 4.05

Entry S24Q , protein stability index reported as 3.01
